Could you please report measured EC50 (agonist) for the items listed next?
molecular target: mouse melanocortin-1 receptor (mouse, UniProt Q01727 1-315); assay: cell-based or functional assay
Sequence (Q01727 whole entry): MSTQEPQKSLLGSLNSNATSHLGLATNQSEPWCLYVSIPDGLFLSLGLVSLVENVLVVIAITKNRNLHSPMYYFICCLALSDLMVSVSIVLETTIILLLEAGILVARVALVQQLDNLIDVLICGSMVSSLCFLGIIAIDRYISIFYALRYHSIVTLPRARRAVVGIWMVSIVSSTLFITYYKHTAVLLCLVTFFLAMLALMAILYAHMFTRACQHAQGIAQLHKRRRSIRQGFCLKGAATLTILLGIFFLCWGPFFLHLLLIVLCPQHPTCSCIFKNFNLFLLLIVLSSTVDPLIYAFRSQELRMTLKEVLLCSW
Bridges are numbered along the chain shown (N, C = ends). Where no end group is shown, it is not given here. [ ]: non-standard residue; d: D form.

Per the record, YDHXRXNAFXY (Asp-Dpr side chain lactam bridge; Dpr; DPhe; Bip; C-terminal amide (amide resin)) [SEQ ID NO:41 (Tyr-c[Asp-His-DPhe-Arg-Bip-Asn-Ala-Phe-Dpr]-Tyr)] has EC50 (agonist) of 11.6 nM

Per the record, YDFXRWNAFXY (Asp-Dpr side chain lactam bridge; Dpr; DPhe; C-terminal amide (amide resin)) [SEQ ID NO:29 (Tyr-c[Asp-Phe-DPhe-Arg-Trp-Asn-Ala-Phe-Dpr]-Tyr)] has EC50 (agonist) of 6.04 nM

Per the record, YCRF[dF]NAFCY-NH2 (disulfide 2-9; N-terminus assumed; SMILES C[C@@H]1NC(=O)[C@H](CC(N)=O)NC(=O)[C@@H](Cc2ccccc2)NC(=O)[C@H](Cc2ccccc2)NC(=O)[C@H](CCCNC(=N)N)NC(=O)[C@@H](NC(=O)[C@@H](N)Cc2ccc(O)cc2)CSSC[C@@H](C(=O)N[C@@H](Cc2ccc(O)cc2)C(N)=O)NC(=O)[C@H](Cc2ccccc2)NC1=O) [SEQ ID NO:1 (Tyr-c[Cys-Arg-Phe-DPhe-Asn-Ala-Phe-Cys]-Tyr)] has EC50 (agonist) of 61.3 nM
